B1: H2-Kb / B14 (parent)
chain 1: GEQVEQRPPHLSVREGDSAVIICTYTDPNSYYFFWYKQEPGAGLQLLMKVFSSTEINEGQGFTVLLNKKDKQLSLNLTAAHPGDSAVYFCAVSARGNMGYKLTFGTGTSLLVDP
chain 2: GGIITQTPKFLIGQEGQKLTLKCQQNFNHDTMYWYRQDSGKGLRLIYYSITENDLQKGDLSEGYDASREKKSSFSLTVTSAQKNEMAVFLCASSMGQGASDYTFGSGTRLLVI
chain 3: not shown
chain 4: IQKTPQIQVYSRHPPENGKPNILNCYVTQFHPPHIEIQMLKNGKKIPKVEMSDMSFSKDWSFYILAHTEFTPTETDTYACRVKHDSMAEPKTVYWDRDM
chain 5: SIINFEKL

Variants of: B1
test: % of reporter cells activated (NFAT-GFP), raw; further: test concentration or dose not given here
appliedConditions: with B14; scale: % of reporter cells activated
Each item that follows carries a reported ratio to parent.
Answer with a bare number; do not write a unit.

A selection of reference data follows.
> print(dat)
   residuechange  measuredquantity  testresult
1    chain 5 K7Y   ratio to parent        1.69
2    chain 5 I2T   ratio to parent        1.16
3    chain 5 L8T   ratio to parent        1.38
4    chain 5 K7T   ratio to parent        1.73
5    chain 5 S1C   ratio to parent        1.42
6    chain 5 N4C   ratio to parent       0.916
7    chain 5 I2W   ratio to parent       0.933
8    chain 5 L8Y   ratio to parent        1.07

Query string: Data request, read-out ratio to parent, for chain 5 L8I
Result string: 1.51

The measurements presented in this section are drawn from paper PMC11480844.
